tested on: T1, rat GIP receptor (rat) (UniProt P43219)
T1 sequence (looked up): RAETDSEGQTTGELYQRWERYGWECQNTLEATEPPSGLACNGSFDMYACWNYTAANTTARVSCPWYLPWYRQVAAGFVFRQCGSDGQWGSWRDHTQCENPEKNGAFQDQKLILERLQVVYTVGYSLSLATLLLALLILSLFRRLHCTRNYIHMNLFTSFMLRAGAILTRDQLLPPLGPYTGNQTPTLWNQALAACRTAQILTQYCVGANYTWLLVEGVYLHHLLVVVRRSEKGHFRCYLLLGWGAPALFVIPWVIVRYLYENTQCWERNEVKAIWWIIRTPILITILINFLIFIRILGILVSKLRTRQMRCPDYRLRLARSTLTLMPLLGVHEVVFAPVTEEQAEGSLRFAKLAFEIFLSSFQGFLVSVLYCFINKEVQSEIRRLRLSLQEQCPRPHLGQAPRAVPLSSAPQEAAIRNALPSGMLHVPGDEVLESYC
measurement notes: cell-based or functional assay
Define the label as 1 when cAMP EC50 is strictly less than 60 pM and as -1 in all remaining cases.

| binder | class assignment |
| --- | --- |
| IP335 (Fc fusion) YSEGTFISDYSIAMDKIHQQDFVNWLLAQKGGGGGSGGGGSGGGGSGGGGSA | 1 |
| IP337 (Fc fusion) YSEGTFISDYSIAMDKIHQQDFVNWLLAQKGGGGGSGGGGSGGGGSGGGGSGGGGSGGGGSGGGGSA | 1 |
| IP412 (Fc fusion) YSEGTFTSDYSKLLEEEANRLFIEWLLAGGGGGGSGGGGSGGGGSGGGGSATHTCPPC | 1 |
| IP312 (Fc fusion) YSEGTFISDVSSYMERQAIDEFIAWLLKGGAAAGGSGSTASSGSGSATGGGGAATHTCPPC | -1 |
| IP223 (Fc fusion) YSEGTFTSDVSSYMEEEAIDEFIAWLLKGGAAAGGSGSTASSGSGSATGGGGAATHTCPPCPAPEF | -1 |
| IP314 (Fc fusion) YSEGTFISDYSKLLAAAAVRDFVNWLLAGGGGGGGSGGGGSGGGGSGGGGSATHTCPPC | -1 |
| IP349 (Fc fusion) YSEGTFTSDYSKLLERQAIDEFIANLLKGGGGGGGSGGGGSGGGGSGGGGSGGGGSGGGGSA | 1 |
| IP336 (Fc fusion) YSEGTFISDYSIAMDKIHQQDFVNWLLAQKGGGGGSGGGGSGGGGSGGGGSGGGGSGGGGSA | 1 |
| IP301 (Fc fusion) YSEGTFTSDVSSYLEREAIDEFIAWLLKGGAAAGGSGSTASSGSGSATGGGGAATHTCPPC | -1 |
| IP368 (Fc fusion) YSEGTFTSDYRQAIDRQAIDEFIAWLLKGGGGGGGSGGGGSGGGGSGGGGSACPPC | -1 |
| IP309 (Fc fusion) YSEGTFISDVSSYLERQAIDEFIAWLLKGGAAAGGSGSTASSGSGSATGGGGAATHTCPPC | -1 |
| IP364 (Fc fusion) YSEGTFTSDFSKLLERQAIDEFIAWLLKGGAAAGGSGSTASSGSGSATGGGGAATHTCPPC | 1 |
| IP348 (Fc fusion) YSEGTFTSDYSKLLERQAIDEFIASLLKGGGGGGGSGGGGSGGGGSGGGGSGGGGSGGGGSA | 1 |
| IP333 (Fc fusion) YSEGTFISDYSIALAAAAQQDFVNWLLKGGGGGGGSGGGGSGGGGSGGGGSGGGGSGGGGSA | 1 |
| IP389 (Fc fusion) YSEGTFISDYSIAMDKIHQQDFVNWLLAQKGGGGGSGGGGSGGGGSGGGGSGGGGSGGGGSGGGGSACPPC | 1 |
| IP302 (Fc fusion) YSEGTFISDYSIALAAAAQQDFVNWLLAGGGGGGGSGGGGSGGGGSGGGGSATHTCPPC | 1 |
| IP334 (Fc fusion) YSEGTFTSDYSIALAAAAQQDFVNWLLKGGGGGGGSGGGGSGGGGSGGGGSGGGGSGGGGSA | 1 |
| IP332 (Fc fusion) YSEGTFTSDYSIALAAAAQQDFVNWLLAGGGGGGGSGGGGSGGGGSGGGGSGGGGSGGGGSA | 1 |
| IP247 (Fc fusion) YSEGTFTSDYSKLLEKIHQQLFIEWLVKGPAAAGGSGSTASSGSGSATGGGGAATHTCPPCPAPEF | 1 |
